Entry source: patent US20230250096A1

Molecular target: menin/MLL (terbium chelate-labeled menin, FITC-MBM1 peptide) (Homo sapiens, UniProt O00255, T541A)
Construct: Menin (a.a 1-610-6xhis tag, 2.3 mg/mL in 20 mM Hepes)
Sequence (O00255 with tags, fused parts or gaps T541A): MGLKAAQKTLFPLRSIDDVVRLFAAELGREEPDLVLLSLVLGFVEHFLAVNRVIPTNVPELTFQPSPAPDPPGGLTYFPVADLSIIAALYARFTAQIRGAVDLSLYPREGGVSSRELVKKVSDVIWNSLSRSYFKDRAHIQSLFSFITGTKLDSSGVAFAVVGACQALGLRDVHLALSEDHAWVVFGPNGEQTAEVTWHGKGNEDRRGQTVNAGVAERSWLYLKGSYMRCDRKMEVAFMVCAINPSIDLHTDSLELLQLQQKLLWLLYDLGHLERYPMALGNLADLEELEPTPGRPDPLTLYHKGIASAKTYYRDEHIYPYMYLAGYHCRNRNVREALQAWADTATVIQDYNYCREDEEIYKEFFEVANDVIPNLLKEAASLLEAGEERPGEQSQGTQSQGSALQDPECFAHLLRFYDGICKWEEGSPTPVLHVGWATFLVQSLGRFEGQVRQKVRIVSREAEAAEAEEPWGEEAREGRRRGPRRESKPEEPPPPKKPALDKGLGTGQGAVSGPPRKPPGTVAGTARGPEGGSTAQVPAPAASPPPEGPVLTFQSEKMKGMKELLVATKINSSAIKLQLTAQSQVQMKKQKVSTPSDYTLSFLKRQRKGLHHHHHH
Assay: Menin/MLL homogenous time-resolved fluorescence (HTRF) assay
Settings: 30 min incubation
pIC50: −log10 of the molar value.
observable: pIC50

# count of solved cases: 2
CC(=O)N1CCC(CN2CCC(Cc3cn(-c4ccc(F)cc4S(=O)(=O)C(C)C)c4cncc(C)c34)C2)CC1 (stereo not drawn) = 9.38
CN=S(=O)(c1cc(F)ccc1-n1cc(CC2CCN(CC3CCOCC3)C2)c2c(C)cncc21)C(C)C (single isomer, unassigned) [Compound 77b] = 10.15

(A) Cc1cncc2c1c(C[C@@H]1CCN(CC3CCOCC3)C1)cn2-c1ccc(F)cc1S(=N)(=O)C(C)C (mixture of isomers)
(B) Cc1cncc2c1c(C[C@H]1CCN(CC3CCN(C(=O)N(C)C)CC3)C1)cn2-c1ccc(F)cc1C(=O)N(C)C(C)C
query: I'm curious whether A or B has the smaller pIC50 number. Which is it? Choose, then provide that item's label.
result: A
